meta.source: patent US20140072563A1

Measured target: T1, hErbB3.mFc (soluble dimeric human ErbB3 extracellular domain fused to mouse Fc) (human)
T1 construct: called dimeric
T1 chain: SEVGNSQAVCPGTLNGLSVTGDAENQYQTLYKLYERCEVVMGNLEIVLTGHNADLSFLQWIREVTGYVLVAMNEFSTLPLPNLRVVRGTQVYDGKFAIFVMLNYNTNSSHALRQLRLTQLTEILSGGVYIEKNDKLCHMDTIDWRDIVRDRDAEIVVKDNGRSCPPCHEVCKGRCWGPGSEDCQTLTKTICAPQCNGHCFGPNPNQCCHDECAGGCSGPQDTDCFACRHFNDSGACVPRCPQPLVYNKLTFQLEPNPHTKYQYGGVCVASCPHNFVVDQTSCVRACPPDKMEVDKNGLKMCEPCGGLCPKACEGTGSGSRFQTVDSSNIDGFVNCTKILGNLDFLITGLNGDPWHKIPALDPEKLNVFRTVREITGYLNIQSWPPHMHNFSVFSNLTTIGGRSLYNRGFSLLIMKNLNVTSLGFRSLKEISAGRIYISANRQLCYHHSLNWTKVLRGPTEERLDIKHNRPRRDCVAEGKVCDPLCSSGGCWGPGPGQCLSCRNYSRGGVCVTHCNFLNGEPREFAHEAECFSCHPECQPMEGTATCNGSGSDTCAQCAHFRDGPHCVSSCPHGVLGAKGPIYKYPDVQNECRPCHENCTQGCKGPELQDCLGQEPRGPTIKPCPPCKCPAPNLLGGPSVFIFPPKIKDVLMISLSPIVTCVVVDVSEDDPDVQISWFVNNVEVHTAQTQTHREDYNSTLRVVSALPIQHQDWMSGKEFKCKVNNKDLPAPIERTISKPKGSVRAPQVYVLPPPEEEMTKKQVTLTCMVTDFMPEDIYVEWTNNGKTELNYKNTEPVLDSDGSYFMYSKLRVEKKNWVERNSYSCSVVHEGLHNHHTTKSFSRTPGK
Method description: SPR (Biacore), 25 C, mAb capture format
Measured parameter: Kd (pM)
Answer with a number only, understood to be in pM.

Please review the following examples before continuing.
Binder	Kd [pM]
H4H2147P (antibody, V domains shown, Fully human, human IgG4 Fc (H4H prefix)) VH: QVQLVESGGGLVKPGGSLRLSCAASGFTFSDFNMGWIRQAPGKGLEWVSHISGSGNVIYYADSVKGRFAISRDNGKNSLYLQVNSLRAEDTAVYYCARDIGDSDAFDIWGQGTMVTVSS VL: DIQLTQSPSFLSASVGDRVTITCWASQDISSYLAWYQQKPGKAPKLLIYGASTLESGVPSRFSGSGSGTEFTLTISSLQPEDVATYYCQQLNTYPLTFGGGTKVEIKR	1.5
H4H2148P (antibody, V domains shown, Fully human, human IgG4 Fc (H4H prefix)) VH: EVQLVESGGGLVHPGRSLRLSCAASGFTFDDYAMHWVRQSPGKGLEWVSGISWNSVIKHSTDSVRGRFTISRDNAKNSLYLQMNSLKPEDTAFYYCAKDEDDWNYLDYWGQGTLVTVSS VL: DIQMTQSPSSVSASVGDRVTITCRASQDINSWLAWYQQKPGKAPKLLIYTSSNLQSGVPSRFSGSGSGTDFTLTISSLQPEDFATYYCQQSDSFPFTFGPGTKVDIKR	0.295

Kindly review the next binder as well.
Given H4H2094P (antibody, V domains shown, Fully human, human IgG4 Fc (H4H prefix)) VH: EVQLVESGGGLVQPGGSLRLSCAASGFTFSSYDMHWVRQATGKGLEWVSAIGPAGDTYYPVSAMGRFTISRDDAKNSLYLQMNSLRAGDTAVYYCAREGVTIRPDDYFGLDVWGQGTTVTVSA VL: DIQLTQSPSFLSASVGDRVTITCWASQGISDYLAWYQKKPGKAPQLLIYAATTLQSGVPSRFSGSGSGTEFTLTISSLQPEDFATYYCQQLNTYPLTFGGGTKVEIKR , state its recorded Kd. 0.452
